# Assay Target: 5-hydroxytryptamine receptor 2A (Rattus norvegicus)
# Sequence (P14842 whole entry): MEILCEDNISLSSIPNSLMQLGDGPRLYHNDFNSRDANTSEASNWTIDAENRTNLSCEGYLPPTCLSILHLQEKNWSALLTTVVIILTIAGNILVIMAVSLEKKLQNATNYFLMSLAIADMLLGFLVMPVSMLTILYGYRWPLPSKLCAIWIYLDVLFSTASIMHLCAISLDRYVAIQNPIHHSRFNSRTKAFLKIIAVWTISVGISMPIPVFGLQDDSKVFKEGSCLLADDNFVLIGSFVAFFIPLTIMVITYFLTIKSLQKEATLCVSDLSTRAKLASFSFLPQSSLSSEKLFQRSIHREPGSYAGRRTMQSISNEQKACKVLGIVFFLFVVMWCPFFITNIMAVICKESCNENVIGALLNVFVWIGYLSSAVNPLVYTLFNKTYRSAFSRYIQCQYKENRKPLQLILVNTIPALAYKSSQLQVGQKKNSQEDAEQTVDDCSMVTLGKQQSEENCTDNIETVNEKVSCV
# Test Protocol: Efficacy as 5-HT2A receptor-mediated intracellular calcium [Ca2+] mobilization in rat A7r5 cells
# Format: functional, cell-based
Efficacy values by entry
Your answer is read as %, so omit the unit and give the number.

// below: answered compounds
# Compound, Efficacy / %
records = [
    ("COc1cc([C@@H](OC)[C@@H](C)N)c(OC)cc1Br", 93),
    ("COc1cc(C2CNCCO2)c(OC)cc1Br (stereo not drawn)", 4),
    ("COc1cc(C(O)CN)c(OC)cc1Br (stereo not drawn)", 8),
    ("COc1cc([C@H](O)[C@@H](C)N)c(OC)cc1Br", 20),
    ("COc1ccc(OC)c(C[C@@H](C)N)c1", 34),
    ("COc1cc([C@H](OC)[C@H](C)N)c(OC)cc1Br", 31),
]

## Task Item under review: CC[C@H](N)[C@H](O)c1cc(OC)c(Br)cc1OC . Reported Efficacy?
## Result 5

## Task Item under review: COc1cc([C@@H](O)[C@H](C)N)c(OC)cc1Br . Reported Efficacy?
## Result 22

## Task Item under review: CCC(N)Cc1cc(OC)c(Br)cc1OC (stereo not drawn) . Reported Efficacy?
## Result 15

====

# Assay Target: 5-hydroxytryptamine receptor 2A (Rattus norvegicus)
Define the label as met when Ki is strictly less than 8 nM and as not met in all remaining cases.

The examples below pair each entry with its known result.
# Molecule, Category Label
rows = [
    ("COc1cc(C2CNCCO2)c(OC)cc1Br (configuration not stated)", "not met"),
    ("COc1cc([C@@H](OC)[C@@H](C)N)c(OC)cc1Br", "met"),
    ("CC[C@H](N)[C@H](O)c1cc(OC)c(Br)cc1OC", "not met"),
    ("COc1cc(C(O)CN)c(OC)cc1Br (configuration not stated)", "met"),
    ("COc1cc(C(CN)OC)c(OC)cc1Br (configuration not stated)", "met"),
    ("COc1ccc(OC)c(C[C@@H](C)N)c1", "not met"),
]

Kindly review the next molecule as well.
## Task Does the reported Ki of the following molecule sit strictly below 8 nM? CCC(N)Cc1cc(OC)c(Br)cc1OC (configuration not stated)
## Result met

====

# Assay Target: 5-hydroxytryptamine receptor 2A (Rattus norvegicus)
# Test Protocol: Efficacy as 5-HT2A receptor-mediated intracellular calcium [Ca2+] mobilization in rat A7r5 cells
# Type: functional, cell-based
Metric: Efficacy

// below: answered compounds
# Compound, Efficacy
data = [
    ("COc1cc(C(CN)OC)c(OC)cc1Br (centres undefined)", "63%"),
    ("COc1cc([C@H](O)[C@H](C)N)c(OC)cc1Br", "16%"),
    ("COc1cc([C@@H](O)[C@@H](C)N)c(OC)cc1Br", "50%"),
]

Now, please, on to the next compound.
## Task Requested read-out Efficacy, target or system 5-hydroxytryptamine receptor 2A (Rattus norvegicus), entry COc1cc(CC(C)N)c(OC)cc1Br (centres undefined)
## Result 38%
